methodSummary: Stability and compatibility of netarsudil dimesylate in boric acid-sodium borate buffer solution
Format: physicochemical
statedConditions: commercially available doses mixed in boric acid-sodium borate buffer solution, pH 4.5 to 5.4
Structures can show the parent of a compound that is named as a salt.
experimentalEndpoint: compatibility with netarsudil dimesylate (white precipitate)

Challenge: Reported compatibility with netarsudil dimesylate (white precipitate), compound CC(C)(C)NC[C@H](O)COc1nsnc1N1CCOCC1 [timolol maleate] : ____
Response given: incompatible

Challenge: And then CC(C)NCC(O)COc1ccc(CCOCC2CC2)cc1 (stereo not drawn) [betaxolol hydrochloride] , what is it?
Response given: incompatible

Challenge: Note, next up: CC(=O)Oc1c(C)cc(OCC(O)CNC(C)C)c(C)c1C (stereo not drawn) [metipranolol hydrochloride]
Response given: incompatible

Challenge: Follow-up entry: `O=C(O)/C=C\C(=O)O`
Response given: incompatible

Challenge: Proceed to Cl [hydrochloric acid]
Response given: incompatible

---
Challenge: Which value of compatibility with netarsudil dimesylate (white precipitate) has been reported for CC(C)(C)NCC(O)COc1cccc2c1CCC(=O)N2 (stereo not drawn) [carteolol hydrochloride] in the records?
Response given: incompatible
